Test system: MCF7
PROTOCOL DESCRIPTION: Antiproliferative activity against human MCF7 cells after 2 days by MTT assay
Type: functional, cell-based
CONDITION PARAMETERS: MCF7, 48 h
READOUT LABEL: IC50 (nM)
Just the number in nM, nothing appended.

COc1cc2c(c(OC)c1OC)-c1ccc(OC)c(=O)cc1[C@@H](NC(=O)c1cccc(C)c1)CC2 5.6
CCCCCc1ccc(C(=O)N[C@H]2CCc3cc(OC)c(OC)c(OC)c3-c3ccc(OC)c(=O)cc32)cc1 5.8
COc1cc2c(c(OC)c1OC)-c1ccc(OC)c(=O)cc1[C@@H](NC(=O)c1cccc(Br)c1)CC2 0.363

Attention now turns to another entry.
Can you share its IC50? I mean this compound: `COc1cc2c(c(OC)c1OC)-c1ccc(OC)c(=O)cc1[C@@H](NC(=O)c1ccc(Cl)cc1)CC2`
6.7

---

Below: a set of entries, each annotated with reported Activity.
System: A549
PROTOCOL DESCRIPTION: Cell cycle arrest in human A549 cells assessed as accumulation at sub-G0 phase at 20 nM after 24 hrs by propidium iodide staining based flow cytometry (reference value: 2 +/- 1%)
Format: functional
Just the number in %, nothing appended.

Please review the entries below; each comes with its answer.
COc1cc2c(c(OC)c1OC)-c1ccc(OC)c(=O)cc1[C@@H](NC(=O)Cc1ccccc1)CC2 5
COc1cc2c(c(OC)c1OC)-c1ccc(OC)c(=O)cc1[C@@H](NC(=O)c1ccc(Br)cc1)CC2 4
COc1cc2c(c(OC)c1OC)-c1ccc(OC)c(=O)cc1[C@@H](NC(=O)c1cccc(Br)c1)CC2 4
COc1cc2c(c(OC)c1OC)-c1ccc(OC)c(=O)cc1[C@@H](NC(=O)c1ccccc1Br)CC2 4

Attention now turns to another entry.
API: value(readout= Activity, system= A549, query= `COc1cc2c(c(OC)c1OC)-c1ccc(OC)c(=O)cc1[C@@H](NC(=O)c1cccc(Cl)c1)CC2` )
6

---

PROTOCOL DESCRIPTION: Selectivity index, ratio of IC50 for HEK293 cells to IC50 for human HT-29 cells
CONDITION PARAMETERS: HEK293 cells versus HT-29 cells
READOUT LABEL: selectivity ratio
Hey, just send me the number, nothing else.

Can you share its selectivity ratio? I mean this compound: `CCCCCc1ccc(C(=O)N[C@H]2CCc3cc(OC)c(OC)c(OC)c3-c3ccc(OC)c(=O)cc32)cc1`
0.4

---

Tested on: A549
PROTOCOL DESCRIPTION: Antiproliferative activity against human A549 cells after 2 days by MTT assay
Type: functional, cell-based
CONDITION PARAMETERS: A549, 48 h
READOUT LABEL: IC50
Write the quantity with the unit trailing the number.

Please review the entries below; each comes with its answer.
COc1cc2c(c(OC)c1OC)-c1ccc(OC)c(=O)cc1[C@@H](NC(=O)CBr)CC2 26 nM
COc1cc2c(c(OC)c1OC)-c1ccc(OC)c(=O)cc1[C@@H](NC(=O)Cc1ccccc1)CC2 2.8 nM
CCCCCc1ccc(C(=O)N[C@H]2CCc3cc(OC)c(OC)c(OC)c3-c3ccc(OC)c(=O)cc32)cc1 1.27 nM
COc1cc2c(c(OC)c1OC)-c1ccc(OC)c(=O)cc1[C@@H](NC(=O)c1ccccc1Br)CC2 13 nM

Can you share its IC50? I mean this compound: `COc1cc2c(c(OC)c1OC)-c1ccc(OC)c(=O)cc1[C@@H](NC(=O)c1ccccc1Cl)CC2`
13 nM

Can you share its IC50? I mean this compound: `COc1cc2c(c(OC)c1OC)-c1ccc(OC)c(=O)cc1[C@@H](NC(=O)CF)CC2`
7.83 nM
